The measured values listed here are drawn from the supplement of paper PMC4862054.

I'd be grateful if you could share measured drug sensitivity score for these entries.
- System: Hs578T
- assay_explanation: drug sensitivity score (DSS), CellTox Green (DSS (AUC-based score)); higher = stronger drug effect (viability inhibition or cytotoxicity); extreme values may be limits of the assay
- test_context: incubation time: 72 h
Answer using only a numeral; do not append any unit.

# input Write down the reported drug sensitivity score of `O=C(O)c1ccc(-c2c[nH]c3ncc(-c4ccccc4)cc23)cc1C1CCCC1` , test system: Hs578T.
# output 0

# input Write down the reported drug sensitivity score of `Clc1ccc(Nc2nnc(Cc3ccncc3)c3ccccc23)cc1` , test system: Hs578T.
# output 0

# input Write down the reported drug sensitivity score of `O=C(CCCCCCC(=O)Nc1ccc([C@H]2O[C@@H](CSc3nc(-c4ccccc4)c(-c4ccccc4)o3)C[C@@H](c3ccc(CO)cc3)O2)cc1)NO` , test system: Hs578T.
# output 0.503

# input Write down the reported drug sensitivity score of `CCC1=C[C@@H]2CN(C1)Cc1c([nH]c3ccccc13)[C@@](C(=O)OC)(c1cc3c(cc1OC)N(C)[C@H]1[C@@](O)(C(=O)OC)[C@H](OC(C)=O)[C@]4(CC)C=CCN5CC[C@]31[C@@H]54)C2` , test system: Hs578T.
# output 23.3

# input Write down the reported drug sensitivity score of O=C1CCC(N2C(=O)c3ccccc3C2=O)C(=O)N1 (stereo not drawn) [Thalidomide] , test system: Hs578T.
# output 0

# input Write down the reported drug sensitivity score of CC1(C)NC(=O)N(c2ccc([N+](=O)[O-])c(C(F)(F)F)c2)C1=O [Nilutamide] , test system: Hs578T.
# output 0

# input Write down the reported drug sensitivity score of `COc1cc2ncnc(Nc3ccc(F)c(Cl)c3)c2cc1NC(=O)/C=C/CN1CCCCC1` , test system: Hs578T.
# output 0

# input Write down the reported drug sensitivity score of `CC(=O)Nc1ccc(C(=O)Nc2ccccc2N)cc1` , test system: Hs578T.
# output 0

----------
I'd be grateful if you could share measured normalised response for these entries.
- Test system: MDA-MB-468
- assay_explanation: normalised response (% of control), CellTiter-Glo; higher = more viable cells (100 = DMSO, 0 = benzethonium chloride kill control)
- test_context: incubation time: 72 h
Give just the number in %; leave the unit off.

# input Param item = Cc1ccc(C(=O)N(CCCN)[C@@H](c2oc3cc(Cl)ccc3c(=O)c2Cc2ccccc2)C(C)C)cc1 (100 nM) ; retrieve measured normalised response.
# output 101

# input Param item = CCC1(c2ccc(N)cc2)CCC(=O)NC1=O (configuration not stated) [Aminoglutethimide] (10000 nM) ; retrieve measured normalised response.
# output 97.3

# input Param item = O=P1(NCCCl)OCCCN1CCCl (configuration not stated) [Ifosfamide] (10000 nM) ; retrieve measured normalised response.
# output 93.7

# input Param item = N#CCNC(=O)c1ccc(-c2ccnc(Nc3ccc(N4CCOCC4)cc3)n2)cc1 [Momelotinib] (10000 nM) ; retrieve measured normalised response.
# output 22.2

# input Param item = C#Cc1cccc(Nc2ncnc3cc(OCCOC)c(OCCOC)cc23)c1 [Erlotinib] (10000 nM) ; retrieve measured normalised response.
# output 59.1

# input Param item = Cn1c(Nc2ccc(C(F)(F)F)cc2)nc2cc(Oc3ccnc(-c4ncc(C(F)(F)F)[nH]4)c3)ccc21 [RAF265] (1000 nM) ; retrieve measured normalised response.
# output 50.8

# input Param item = CN(C)/N=N/c1[nH]cnc1C(N)=O [Dacarbazine] (10000 nM) ; retrieve measured normalised response.
# output 99.8
